molecular target: human orexin-1 receptor (hOX1R) (Homo sapiens (Human), UniProt O43613); assay: FLIPR Ca2+ Flux Assay, CHO cells expressing human orexin-1 receptor; settings: agonist Ala-6,12 human orexin-A 70 pM
Sequence (O43613 whole entry): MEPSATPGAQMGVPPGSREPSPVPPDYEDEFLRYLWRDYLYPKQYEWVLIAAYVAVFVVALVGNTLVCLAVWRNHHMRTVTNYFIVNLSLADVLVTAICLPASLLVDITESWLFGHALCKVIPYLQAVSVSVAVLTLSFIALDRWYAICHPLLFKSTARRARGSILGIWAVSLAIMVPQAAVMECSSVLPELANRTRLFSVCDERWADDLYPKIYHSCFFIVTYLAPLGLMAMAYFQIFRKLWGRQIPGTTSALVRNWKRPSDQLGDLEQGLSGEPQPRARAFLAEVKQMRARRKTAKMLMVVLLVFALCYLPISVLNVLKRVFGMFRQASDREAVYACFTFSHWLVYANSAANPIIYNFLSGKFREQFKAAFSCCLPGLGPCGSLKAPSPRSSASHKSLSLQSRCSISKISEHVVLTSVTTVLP
outcome measure: IC50 (nM)
Give the number; nM is assumed, so skip it.

Here's what some known entries look like.
[[record]]
input_smiles = "Cc1sc([C@@H]2CC[C@@H](C)N(C(=O)c3ccccc3C3(C#N)CC3)C2)nc1C(C)(C)O"
measured_on = "human orexin-1 receptor (hOX1R) (Homo sapiens (Human), UniProt O43613)"
endpoint_result = 240

[[record]]
input_smiles = "Cc1sc([C@@H]2CC[C@@H](C)N(C(=O)c3cscc3-c3ncccn3)C2)nc1C(C)(C)O"
measured_on = "human orexin-1 receptor (hOX1R) (Homo sapiens (Human), UniProt O43613)"
endpoint_result = 900


# context switch: different molecule, same IC50
Measured IC50, C[C@@H]1CC[C@@H](c2csc(C(C)(C)O)n2)CN1C(=O)c1ccccc1C1(C#N)CC1 : 1200

====

biological target: human orexin-1 receptor (hOX1R) (Homo sapiens (Human), UniProt O43613); test: FLIPR Ca2+ Flux Assay, CHO cells expressing human orexin-1 receptor; conditions: agonist Ala-6,12 human orexin-A 70 pM
IC50 values, listed per item

[[record]]
input_smiles = "C[C@@H]1CC[C@@H](c2csc(C(C)(C)O)n2)CN1C(=O)c1ccccc1-c1ncccn1"
endpoint_result = "> 10 µM"

[[record]]
input_smiles = "C[C@@H]1CC[C@@H](c2ncc(C(C)(C)O)s2)CN1C(=O)c1ccccc1-n1nccn1"
endpoint_result = "> 10 µM"

[[record]]
input_smiles = "C[C@@H]1CC[C@@H](c2nc([C@@H](O)C(F)F)cs2)CN1C(=O)c1ccccc1-n1nccn1"
endpoint_result = "> 10 µM"

[[record]]
input_smiles = "Cc1sc([C@@H]2CC[C@@H](C)N(C(=O)c3ccccc3-n3ncnn3)C2)nc1C(C)(C)O"
endpoint_result = "2.65 µM"

[[record]]
input_smiles = "C[C@@H]1CC[C@@H](c2cnc(C(C)(C)O)s2)CN1C(=O)c1ccccc1-n1nccn1"
endpoint_result = "> 10 µM"

[[record]]
input_smiles = "C[C@@H]1CC[C@@H](c2nc(C(C)(C)O)cs2)CN1C(=O)c1ccccc1-c1ncccn1"
endpoint_result = "5.47 µM"

[[record]]
input_smiles = "C[C@@H]1CC[C@@H](c2nc(C(C)(C)O)cs2)CN1C(=O)c1ccccc1-n1nccn1"
endpoint_result = "2.25 µM"


Measured IC50, C[C@@H]1CC[C@@H](c2csc(C(C)(C)O)n2)CN1C(=O)c1cscc1-c1ncccn1 : > 10 µM

====

target: human orexin-1 receptor (hOX1R) (Homo sapiens (Human), UniProt O43613); test: FLIPR Ca2+ Flux Assay, CHO cells expressing human orexin-1 receptor; details: agonist Ala-6,12 human orexin-A 70 pM
outcome measure: IC50 (nM)
Give the number; nM is assumed, so skip it.

Here's what some known entries look like.
[[record]]
input_smiles = "Cc1sc([C@@H]2CC[C@@H](C)N(C(=O)c3ccc(F)cc3-n3nccn3)C2)nc1C(C)(C)O"
endpoint_result = 930

[[record]]
input_smiles = "C[C@@H]1CC[C@@H](c2csc(C(C)(C)O)n2)CN1C(=O)c1ccsc1-n1nccn1"
endpoint_result = 7200

[[record]]
input_smiles = "C[C@@H]1CC[C@@H](c2nc(C(C)(C)O)cs2)CN1C(=O)c1ccccc1C1(C#N)CC1"
endpoint_result = 950

[[record]]
input_smiles = "Cc1sc([C@@H]2CC[C@@H](C)N(C(=O)c3cscc3-n3nccn3)C2)nc1C(C)(C)O"
endpoint_result = 2800

[[record]]
input_smiles = "C[C@@H]1CC[C@@H](c2nc(C(C)(C)O)cs2)CN1C(=O)c1cscc1-c1ncccn1"
endpoint_result = 1000


Measured IC50, C[C@@H]1CC[C@@H](c2nc(C(C)(C)O)cs2)CN1C(=O)c1ccc(F)cc1-n1nccn1 : 2250
